molecular target: T1, human PD-L1 (human, UniProt Q9NZQ7 19-290); assay: competitive FACS: blocks human-CD80-mFc binding to 293T-PD-L1 cells
T1 construct: whole, on cells; also called hPD-L1; PD-L1 antigen on MDA-MB-231 cells
T1 sequence (Q9NZQ7 19-290): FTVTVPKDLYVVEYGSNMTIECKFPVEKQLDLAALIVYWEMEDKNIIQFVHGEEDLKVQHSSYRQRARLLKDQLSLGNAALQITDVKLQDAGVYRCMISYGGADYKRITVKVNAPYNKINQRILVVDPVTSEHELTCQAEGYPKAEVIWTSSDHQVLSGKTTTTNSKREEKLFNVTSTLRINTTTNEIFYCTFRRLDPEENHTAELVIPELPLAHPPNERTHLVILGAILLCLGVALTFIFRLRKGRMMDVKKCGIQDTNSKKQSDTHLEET
Each item that follows carries a reported IC50.

>  <binder>
antibody D (VHH, Anti-PD-L1 alpaca nanobody) VHH: EVQLVESGGGLVQAGDSLRLSCTASGRDFLTYGMGWFRQAPGKEREFVASINWSGSMTYYADSVKGRFTISRDNAKNTVYLQMNSLKPGDTAVYICAARRGAVTYASSNEYEHWGQGTQVTVSS

>  <IC50 (nM)>
4.76

$$$$
>  <binder>
antibody E (VHH, Anti-PD-L1 alpaca nanobody) VHH: QVQLVESGGGLVQAGGSLRLSCAASGRSFSSSGMGWFRQAPGKDREFVATINSSGGDTYYADSVEGRFTTSRDNAKNTMSLQMNDLKPEDTAVYYCAAKEGGGPSSIPAIFDYWGQGTQVTVSS

>  <IC50 (nM)>
2.98

$$$$
